- Target System: HLA-B*07:02;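 also: lysates heated 10 min at 37–73 °C, complexes pulled down with pan-HLA I antibody, peptide signal by DIA-MS relative to 37 °C, Tm where half the complex is unfolded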
- Assay Method Text: thermal melting temperature (Tm) of peptide-HLA complex; higher = more thermostable pHLA complex
- Reported Conditions: C1R-B*07:02
Over roughly 1,400 sequences, “thermal melting temperature (Tm) of peptide-HLA complex” has its median near 60; the lowest 2% begin near 45. Many of the other results were omitted from the sample, so the lowest values are more common in it than they were.
Assign class by thermal melting temperature: not lower than 60 °C means rule met; lower than 60 °C means rule not met.

* YIDEGRLVL | rule not met
* TPRSPPLGL | rule met
* APAGLPRETL | rule not met
* RPISVIGGVSL | rule met
* LPRTVTQLV | rule not met
* WPHPPGPFL | rule met
* QPATPGLGM | rule not met
* SPANLPAVL | rule met
* RPASGSPFQL | rule not met
